assay-info: binders of probe aFGF2 on microarray, primary screen, stem cell growth factor project, biochemical, small-molecule microarray, fluorescence 635/667 (AID 1067);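 also: measures binding of biotinylated aFGF2 protein to printed compounds on slides; z-score merges feature fluorescence and signal-to-noise across triplicate slides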
measurement-parameters: higher = more signal
Examples of compounds with documented composite z-score follow.
Answer using only a numeral; do not append any unit.

[in] Supply composite z-score value. Item: COCCOC(=O)N1C(=O)[C@@]2(c3cc(C#CCCO)ccc31)[C@H](c1ccc(O)cc1)N1[C@H](c3ccccc3)[C@H](c3ccccc3)OC(=O)[C@H]1[C@@H]2C(=O)Nc1nc2ccccc2s1
[out] 0.0644

[in] Supply composite z-score value. Item: COCCOC(=O)N1C(=O)[C@@]2(c3cc(C#CC4=CCCCC4)ccc31)[C@H](C(=O)NC[C@H](O)c1ccccc1)[C@H]1C(=O)O[C@H](c3ccccc3)[C@H](c3ccccc3)N1[C@@H]2c1ccc(OCCO)cc1
[out] -0.0566

[in] Supply composite z-score value. Item: COc1cc2c(cc1OC)CN(C(=O)[C@H]1[C@@H]3C(=O)O[C@@H](c4ccccc4)[C@@H](c4ccccc4)N3[C@@H](c3ccccc3OCCO)[C@]13C(=O)Nc1ccc(C#CC4(O)CCCCCC4)cc13)CC2
[out] 0.0605
